The reported numbers originate from patent US11839683B2.

# assayProcedure: clinical
# measurementContext: both, human, in vivo, 1.9 mg, AUC2 hrs, Mean (SD)
recordedEndpoint: AUC(0-t)
Answer by giving the amount and then stating its unit.

// lookup AUC(0-t) for `CN(C)CCc1c[nH]c2ccc(C[C@H]3COC(=O)N3)cc12`
7.36 ng·h/mL

* * *

# assayProcedure: clinical
# measurementContext: both, human, in vivo, 3.8 mg, Tmax, Mean (SD)
recordedEndpoint: Tmax (min)
# unit: min | format: bare number

Please look up its Tmax: `CN(C)CCc1c[nH]c2ccc(C[C@H]3COC(=O)N3)cc12`
16.1

* * *

# assayProcedure: clinical
# measurementContext: both, human, in vivo, 0.48 mg, AUCt, Mean (SD)
recordedEndpoint: AUC(0-t) (ng·h/mL)
Numeric answer only, unit ng·h/mL assumed.

# lookup: AUC(0-t) of CN(C)CCc1c[nH]c2ccc(C[C@H]3COC(=O)N3)cc12 [Zolmitriptan, zolmitriptan]
2.81
